Test: Solubility of compound in pH 6.5 phosphate buffer by nephelometry
Type: physicochemical
Hi there, I'd appreciate the recorded solubility kinetic for every entry that follows.
Give just the number in µg/mL; leave the unit off.

solubility kinetic lookup needed for `O=S(=O)(c1ccc(F)cc1)N1CCc2[nH]c3ccccc3c2C1` , thanks. 1.6

Any idea what solubility kinetic was measured for `O=C1CCN(S(=O)(=O)c2ccc(F)cc2)CC(=O)c2ccccc2N1` ? 50

====

Kindly state IC50 at 70 h for each of the entries shown.
Test: Cytotoxicity against rat L6 cells assessed as reduction in cell viability measured after 70 hrs by alamar blue reagent based fluorescence assay
Assay type: toxicity
Give the value, in units of µM, as a plain number.

Look at this molecule and give its reported IC50 at 70 h. `O=C(c1ccc(F)cc1)N1CCc2[nH]c3ccccc3c2C1` 69

GET /values?readout=IC50 at 70 h&item= `O=S(=O)(c1ccc(F)cc1)N1CCc2[nH]c3ncccc3c2C1` 82

Tell me the measured IC50 at 70 h of `Cc1ccc(S(=O)(=O)N2CCc3[nH]c4ccccc4c3C2)cc1` , please. 29

Query: IC50 at 70 h; subject: `O=C(O)c1ccc(S(=O)(=O)N2CCc3[nH]c4ccccc4c3C2)cc1` 190

Value lookup for IC50 at 70 h; key = `O=C(O)c1ccc2[nH]c3c(c2c1)CN(S(=O)(=O)c1ccc(F)cc1)CC3` 240

Entry `O=S(=O)(c1ccc(C(F)(F)F)cc1)N1CCc2[nH]c3ccccc3c2C1` has what IC50 at 70 h? 81

Recorded IC50 at 70 h of `O=S(=O)(c1cnc[nH]1)N1CCc2[nH]c3ccccc3c2C1` , please. 170

Item `NC(=O)c1ccc2[nH]c3c(c2c1)CN(S(=O)(=O)c1ccc(F)cc1)CC3` has what recorded IC50 at 70 h? 100

I'd like to know its IC50 at 70 h. The molecule in question is `O=S(=O)(C1CCOCC1)N1CCc2[nH]c3ccccc3c2C1` 160

Record request: IC50 at 70 h value, item `CS(=O)(=O)N1CCc2[nH]c3ccccc3c2C1` 290
